assay: endothelial E-selectin expression blockers – imaging, HUVEC, immunofluorescence, MLSMR starter and 10KST1 sets, primary screen (AID 487); settings: HUVEC TNFalpha-induced E-selectin immunofluorescence imaging, at 2 µM; measured here: cell number, toxicity;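 further: 100% = median nuclei count of all wells on the same plate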
endpoint.name: nuclei count (%)
The answer is to be given in %; state only the numeric part.

[Q] I'd like to know its nuclei count. The compound in question is CCc1nnc(NC(=O)CSc2nnc3scc(-c4ccc(C)cc4)n23)s1
[A] 104

[Q] I'd like to know its nuclei count. The compound in question is O=C(COC(=O)c1cccc(S(=O)(=O)N2CCc3ccccc32)c1)NC1CCS(=O)(=O)C1 (stereo unspecified)
[A] 111

[Q] I'd like to know its nuclei count. The compound in question is CCCCNC(=O)C(C#N)c1nc2ccccc2nc1N1CCCC1 (stereo unspecified)
[A] 52.3

[Q] I'd like to know its nuclei count. The compound in question is O=C(Nc1ccc(F)cc1)N(CCCN1CCOCC1)Cc1cc2cc3c(cc2[nH]c1=O)OCO3
[A] 114

[Q] I'd like to know its nuclei count. The compound in question is O=C(CSc1ncnc2nc[nH]c12)c1ccc(Cl)cc1
[A] 95

[Q] I'd like to know its nuclei count. The compound in question is COc1ccccc1N1CCN(Cc2nc(N)nc(Nc3ccc(C)c(Cl)c3)n2)CC1
[A] 100

[Q] I'd like to know its nuclei count. The compound in question is Cc1ccccc1CN1CCN(CC(=O)NCc2ccccc2)C1=O
[A] 114

[Q] I'd like to know its nuclei count. The compound in question is COc1cccc(-n2c(SCC(=O)Nc3cc(C)on3)nc3c([nH]c4ccccc43)c2=O)c1
[A] 118

[Q] I'd like to know its nuclei count. The compound in question is Cc1noc(/C=C/N(C)C)c1S(=O)(=O)N1CCCC(C(=O)NCCC2=CCCCC2)C1 (stereo unspecified)
[A] 115

[Q] I'd like to know its nuclei count. The compound in question is COc1ccc(S(=O)(=O)CCC(=O)O)cc1
[A] 107

[Q] I'd like to know its nuclei count. The compound in question is CCc1nc(SCC(=O)NCc2ccco2)c2c3c(sc2n1)CCCC3
[A] 116

====

test: inhibitors of TNFa-induced NFkB p65 translocation, primary screen, imaging, HUVEC, MLSMR starter and 10KST1 sets (AID 438); settings: HUVEC TNFa-induced p65 nuclear translocation; at 2 µM, stronger effect = higher value, 0% TNFa-plus-vehicle, 100% no-TNFa wells;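 further: compound added about 3h40 before a 20 min TNFalpha stimulation; signal is the nuclear over cytoplasmic p65 intensity ratio per well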
endpoint.name: inhibition (%)
The answer is to be given in %; state only the numeric part.

[Q] I'd like to know its inhibition. The compound in question is O=C(c1ccco1)N1CCN(/C(=N/S(=O)(=O)c2cccs2)c2ccccc2Cl)CC1
[A] -5.6

[Q] I'd like to know its inhibition. The compound in question is Cc1cc2ncn(C(=O)c3c(-c4ccccc4)noc3C)c2cc1C
[A] -15.9

[Q] I'd like to know its inhibition. The compound in question is CC1=C(C(=O)NCc2ccccc2)C(c2ccccc2OCC(N)=O)NC(=O)N1 (stereo not drawn)
[A] -8.1

[Q] I'd like to know its inhibition. The compound in question is Cc1c(C)[n+](=O)c2c(n1[O-])CCCCC2
[A] -27.9

[Q] I'd like to know its inhibition. The compound in question is O=C(CN1CCCN(S(=O)(=O)c2ccc(F)cc2)CC1)Nc1ccccc1Br
[A] -1.3

[Q] I'd like to know its inhibition. The compound in question is CCN(CC)S(=O)(=O)c1ccc(F)cc1
[A] 2.4

[Q] I'd like to know its inhibition. The compound in question is COC(=O)CSc1nc2ncc(Cl)cc2[nH]1
[A] 8.6

[Q] I'd like to know its inhibition. The compound in question is COc1ccc(CC(=O)Nc2c3c(nn2-c2cccc(Cl)c2)CS(=O)C3)cc1 (stereo not drawn)
[A] 5.7

[Q] I'd like to know its inhibition. The compound in question is COc1ccc(-n2ncc3c(NCCCN4CCOCC4)ncnc32)cc1
[A] 1.4

[Q] I'd like to know its inhibition. The compound in question is COCCNC(=O)CC(NS(=O)(=O)c1ccc(NC(C)=O)cc1)C(C)C (stereo not drawn)
[A] 6.5

[Q] I'd like to know its inhibition. The compound in question is CCS(=O)(=O)c1nc2ccccc2n1Cc1ccccc1Cl
[A] -1.1

[Q] I'd like to know its inhibition. The compound in question is COc1ccc(C2=NO[C@@H]3C(=O)N(c4ccc5c(c4)OCCO5)C(=O)[C@H]23)cc1OC
[A] -17.3

[Q] I'd like to know its inhibition. The compound in question is COc1ccc(Cc2nc(-c3ccc(NC(=O)c4cccnc4)cc3)no2)cc1
[A] 9.6

[Q] I'd like to know its inhibition. The compound in question is CCc1cccc(NC(=O)C2CCCN(S(=O)(=O)c3c(C)[nH]c(=O)[nH]c3=O)C2)c1 (stereo not drawn)
[A] -10.3

[Q] I'd like to know its inhibition. The compound in question is CCc1nn2c(=O)cc(CSc3nc4sc5c(c4c(=O)n3C)CCCC5)nc2s1
[A] -14.1

[Q] I'd like to know its inhibition. The compound in question is C=CCN(CC=C)C(=O)c1ccncc1
[A] -14

[Q] I'd like to know its inhibition. The compound in question is Cc1nnc(SCC(=O)Nc2ccc(Br)cn2)[nH]c1=O
[A] -8.5

[Q] I'd like to know its inhibition. The compound in question is CCCOc1ccccc1NC(=O)c1c(-c2ccccc2)noc1C
[A] 4.6

[Q] I'd like to know its inhibition. The compound in question is CC(C)N(C(=O)N1CCC(c2nc(-c3ccncc3)no2)CC1)C(C)C
[A] -7.5

[Q] I'd like to know its inhibition. The compound in question is CCOC(=O)CSc1nnc([C@H](C)NC(=O)OC(C)(C)C)o1
[A] 12

[Q] I'd like to know its inhibition. The compound in question is CCN(Cc1ccccc1)C(c1ccncc1)c1nnnn1C(C)(C)C (stereo not drawn)
[A] 11.6

[Q] I'd like to know its inhibition. The compound in question is CC(=O)c1cn(CC(=O)NCc2ccc3c(c2)OCO3)c2ccccc12
[A] -2.1

[Q] I'd like to know its inhibition. The compound in question is O=c1[nH]c2ccc(Br)cc2c(-c2ccccc2)c1N1CCOCC1
[A] -8

====

Kindly supply the reported slope values for the records listed here.
molecular target: Alpha-2C adrenergic receptor (Homo sapiens) (UniProt P18825); assay: compounds altering alpha2C-coupled GIRK flux – cell-based, HEK293 alpha2C/GIRK1/2, thallium flux, primary screen (AID 624); conditions: thallium flux BTC fluorescence, at 10 µM, actives lie on both sides;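 further: slope of fluorescence ratio to pre-addition baseline per second over 15 to 24 s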
Sequence (P18825 whole entry, looked up): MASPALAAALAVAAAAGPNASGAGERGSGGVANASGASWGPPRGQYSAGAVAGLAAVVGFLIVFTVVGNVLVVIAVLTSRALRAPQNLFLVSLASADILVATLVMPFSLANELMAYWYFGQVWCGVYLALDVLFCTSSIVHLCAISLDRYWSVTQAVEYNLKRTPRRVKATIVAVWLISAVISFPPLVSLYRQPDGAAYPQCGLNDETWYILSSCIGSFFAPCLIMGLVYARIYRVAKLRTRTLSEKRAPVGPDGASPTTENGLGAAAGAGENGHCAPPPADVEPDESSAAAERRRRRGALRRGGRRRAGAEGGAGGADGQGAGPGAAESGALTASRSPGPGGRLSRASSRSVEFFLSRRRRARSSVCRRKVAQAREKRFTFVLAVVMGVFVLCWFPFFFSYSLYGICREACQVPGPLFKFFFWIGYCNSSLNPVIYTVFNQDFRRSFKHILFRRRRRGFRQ
Respond using a number only.

[Q] I'd like to know its slope. The molecule in question is CCOc1ccc(NC(=O)C2CC(=O)N(C(C)C)C2)cc1 (stereo unspecified)
[A] 0.00445

[Q] I'd like to know its slope. The molecule in question is CC(C)NC(=O)CSCc1ccccc1Cl
[A] 0.00508

[Q] I'd like to know its slope. The molecule in question is COc1cccc(-c2nc(CS(=O)CC(=O)NCCCOC(C)C)c(C)o2)c1 (stereo unspecified)
[A] 0.00479

[Q] I'd like to know its slope. The molecule in question is Cc1cc(NC(=O)c2ccc3c(c2)C(=O)N(Cc2cccnc2)C3=O)no1
[A] 0.00422

[Q] I'd like to know its slope. The molecule in question is CCCC(=O)Nc1cccc(NC(=O)CN2CCN(c3ccccc3OC)CC2)c1
[A] 0.00587

[Q] I'd like to know its slope. The molecule in question is Fc1cccc(Cl)c1Cn1nnc2c(NCc3ccccn3)ncnc21
[A] 0.0046

[Q] I'd like to know its slope. The molecule in question is COC(=O)C(C)NC(=O)C12CC3CC(CC(C3)C1)C2 (stereo unspecified)
[A] 0.0064

[Q] I'd like to know its slope. The molecule in question is Cc1cccc(Nc2nc3c(c(=O)n(C)c(=O)n3C)n2Cc2ccccc2)c1
[A] 0.00618

[Q] I'd like to know its slope. The molecule in question is CC1CCC2C(C1)c1sc(=O)[nH]c1SC2(C)C (stereo unspecified)
[A] 0.00605

[Q] I'd like to know its slope. The molecule in question is COc1ccccc1N1CCN(C(=O)CN(Cc2ccc(Cl)cc2)S(C)(=O)=O)CC1
[A] 0.00623

[Q] I'd like to know its slope. The molecule in question is CCN(CC)CCCNC(=O)c1cn(C)c2ccc(S(=O)(=O)N(C)C)cc2c1=O
[A] 0.00615
